# measured_on: hA2a (Homo sapiens (Human))
# Sequence (P29274 whole entry): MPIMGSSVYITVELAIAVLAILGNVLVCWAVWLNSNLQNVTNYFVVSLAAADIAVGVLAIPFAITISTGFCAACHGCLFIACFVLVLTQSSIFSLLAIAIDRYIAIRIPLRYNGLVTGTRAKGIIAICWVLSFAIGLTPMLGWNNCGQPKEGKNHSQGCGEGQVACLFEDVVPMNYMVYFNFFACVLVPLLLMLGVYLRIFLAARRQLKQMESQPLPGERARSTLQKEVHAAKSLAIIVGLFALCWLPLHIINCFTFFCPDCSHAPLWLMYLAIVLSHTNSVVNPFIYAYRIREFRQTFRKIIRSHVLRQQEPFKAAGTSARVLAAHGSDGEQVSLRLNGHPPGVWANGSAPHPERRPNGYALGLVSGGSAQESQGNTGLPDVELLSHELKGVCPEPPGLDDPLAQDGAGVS
# assay_notes: cAMP inhibition assay in hA2a/CHO cells
# Type: cell-based
# condition_summary: adenosine stimulation, read-out: cAMP & FLIPR IC50 (nM) hA2a
measurement_label: IC50 (nM)
Give the value in nM but do not write nM after it.

stdin: Missing value: IC50, hA2a (Homo sapiens (Human)), entry "Cc1ccc(-c2nc(N)n3nc(Cc4c(F)cccc4F)nc3c2-c2ccc(=O)n(C)c2)cn1" . Fill in?
stdout: 58

stdin: Follow-up entry: "Nc1nc(-n2nccn2)c(-c2ccc3nccn3c2)c2nc(Cc3ncccc3F)nn12"
stdout: 7.7

stdin: Another molecule to check: "CCn1cc(-c2c(-c3ccc(F)cc3)nc(N)n3nc(Cc4ncccc4F)nc23)ccc1=O"
stdout: 2.1

stdin: Request: Cc1cnc2ccc(-c3c(-c4ncco4)nc(N)n4nc(CC5CCCO5)nc34)cn12 (single isomer, unassigned) [Example 106-1]
stdout: 0.5

stdin: Now consider "Cc1cnc2ccc(-c3c(N4CCC4)nc(N)n4nc(Cc5ncccc5F)nc34)cn12" and answer again.
stdout: 1.9

stdin: Same read-out for "Cc1cc(-c2c(-c3ccc(F)cc3)nc(N)n3nc(Cc4ncccc4F)nc23)ccn1" ?
stdout: 59

stdin: Again, but for "Cc1cc(-c2c(-c3ncco3)nc(N)n3nc(Cc4ncccc4F)nc23)cc(Cl)n1"
stdout: 25

stdin: Quick one: "Cn1cc(-c2c(-c3ncco3)nc(N)n3nc(Cc4ncccc4F)nc23)ccc1=O"
stdout: 36
